The measurements presented in this section are drawn from PubChem BioAssay (EPA / NIEHS).

- Read-out: Collagen III, COL3A1 (gene 1281)
- ASSAY_DETAILS: BSK_MyoF_CollagenIII: BioMAP Diversity Plus: MyoF Assay for Collagen III Biomarker Activity (AID 2284239)
- PROTOCOL_CONDITIONS: primary human lung fibroblasts
The source made the active and inactive calls. Rule for the calls: active = hit-call score of the fitted dose curve at least 0.9, where 1 is the maximum; inactive = score below 0.9.
Outcomes: 1.0 = active, 0.0 = inactive

{"columns": ["COMPOUND", "CLASSIFICATION"],
 "data": [
  ["BrC1CCC(Br)C(Br)CCC(Br)C(Br)CCC1Br (stereo unspecified)", 0.0],
  ["O=C(O)C[C@H](O)C[C@H](O)/C=C/c1c(C2CC2)nc2ccccc2c1-c1ccc(F)cc1", 1.0],
  ["CC(C)(COC(=O)c1ccccc1)COC(=O)c1ccccc1", 0.0],
  ["O=C=NC1CCC(CC2CCC(N=C=O)CC2)CC1 (stereo unspecified)", 0.0],
  ["CCCCC(CC)COC(=O)/C=C\\C(=O)OCC(CC)CCCC (stereo unspecified)", 0.0],
  ["c1ccc2c(c1)c1cccc3ccc4cccc2c4c31", 0.0]
]}
